Provenance of the data: patent US4006232A

- testDescription: in vivo
- Format: in vivo
- conditionNotes: mouse, in vivo, ip; calculated with Minimum Lethal Dose data, intraperitoneal; read-out: MLD/ED50 (Therapeutic Index)
Structures can show the parent of a compound that is named as a salt.
observationType: selectivity ratio

- Cl.O=C1NC(c2ccccc2)(c2ccccc2)C(=O)N1CCCN1CCC(O)(c2ccccc2)CC1 [Compound 5, hydrochloride]: 5.35
- Nc1ccc(C2(c3ccccc3)NC(=O)N(CCCN3CCC(c4ccccc4)CC3)C2=O)cc1 (stereo not shown) [Compound 15]: > 29.4
- O=C1NC(c2ccccc2)(c2ccccc2)C(=O)N1CCCN1CCC(c2ccccc2)CC1 [Compound 2]: 23.7
- Cc1ccc(C2(c3ccc(C)cc3)NC(=O)N(CCCN3CCC(O)(c4ccccc4)CC3)C2=O)cc1 [Compound 18]: > 4.17
- Cl.O=C1NC(c2ccccc2)(c2ccc(Br)cc2)C(=O)N1CCCN1CCC(c2ccccc2)CC1 (stereo not shown) [Compound 11, hydrochloride]: > 2.98
- O=C1NC(c2ccccc2)(c2ccccc2)C(=O)N1CCCN1CCCCC1 [III, reference compound]: 1.63
- CC(C)(C)NCC(O)CN1C(=O)NC(c2ccccc2)(c2ccccc2)C1=O.Cl (stereo not shown) [Compound 6, hydrochloride]: 10.6
- Cc1ccc(C2(c3ccc(C)cc3)NC(=O)N(CCCN3CCC(c4ccccc4)CC3)C2=O)cc1 [Compound 13]: > 22.2
- O=C1NC(c2ccccc2)(c2ccccc2)C(=O)N1CCCN1CCOCC1 [IV, reference compound]: 2.34
- Cl.O=C1NC(c2ccc(Cl)cc2)(c2ccc(Cl)cc2)C(=O)N1CCCN1CCC(c2ccccc2)CC1 [Compound 8, hydrochloride]: > 2.28
- O=C1NC(c2ccccc2)(c2ccc([N+](=O)[O-])cc2)C(=O)N1CCCN1CCC(c2ccccc2)CC1 (stereo not shown) [Compound 14]: > 9.52
- O=C1NC(c2ccccc2)(c2ccccc2)C(=O)N1CCN1CC=C(c2ccccc2)CC1 [Compound 4, hydrochloride]: > 1.85
- O=C(O)/C=C\C(=O)O.O=C1NC(c2ccccc2)(c2ccccc2)C(=O)N1CCCN1CCN(c2ccccc2)CC1 [Compound 1, maleate]: > 9.77
- CCN(CC)CCCN1C(=O)NC(c2ccccc2)(c2ccccc2)C1=O [II, reference compound]: 4
- COc1ccc(C2(c3ccc(OC)cc3)NC(=O)N(CCCN3CCC(c4ccccc4)CC3)C2=O)cc1.Cl [Compound 10, hydrochloride]: > 5.24
- Cc1ccc(C2(c3ccccc3)NC(=O)N(CCCN3CCC(c4ccccc4)CC3)C2=O)cc1.O=C(O)/C=C\C(=O)O (stereo not shown) [Compound 12, maleate]: > 5.13
